- System: Enterococcus faecalis
- assay_summary: Minimum inhibitory concentration, E. faecalis
- Format: cell-based, Enterococcus faecalis ATCC 29212
- condition_notes: Mueller-Hinton Broth, 37° C., 72 h
test_readout: MIC E. faecalis (G+)
Your answer should be a number followed by the unit of measure.

Check out these entries, answers already filled in.
smiles_representation: CCCCCCCCCCCCCCCCCC[N+](C)(C)Cc1cc(C[N+](C)(C)C)cc(C[N+](C)(C)C)c1.[Br-].[Br-].[Br-]
measured_value: 4 µM

smiles_representation: CCCCCCCCCCCC[N+](C)(C)Cc1cc(C[n+]2ccccc2)cc(C[N+](C)(C)CCCCCCCCCCCC)c1.[Br-].[Br-].[Br-]
measured_value: 2 µM

smiles_representation: CCCCCCCCCC[N+](C)(C)Cc1cc(C[n+]2ccccc2)cc(C[N+](C)(C)CCCCCCCCCC)c1.[Br-].[Br-].[Br-]
measured_value: 8 µM

smiles_representation: CCCCCCCCCCCC[N+](C)(C)Cc1cc(C[N+](C)(C)C)cc(C[N+](C)(C)C)c1.[Br-].[Br-].[Br-]
measured_value: 250 µM

Problem: Write down the reported MIC E. faecalis (G+) of `CCCCCCCCCCCCCCCCCCCC[N+](C)(C)Cc1cc(C[N+](C)(C)C)cc(C[N+](C)(C)C)c1.[Br-].[Br-].[Br-]` , test system: Enterococcus faecalis.
Result: 4 µM

Problem: Write down the reported MIC E. faecalis (G+) of `CCCCCCCCCCCCCC[N+](C)(C)Cc1cc(C[N+](C)(C)C)cc(C[N+](C)(C)CCCCCCCCCCCCCC)c1.[Br-].[Br-].[Br-]` , test system: Enterococcus faecalis.
Result: 4 µM

* * *

- assay_summary: Isothermal titration calorimetry: critical aggregation concentration and thermodynamics of aggregation
- Format: physicochemical
- condition_notes: 37° C.; single-tailed M-1,1,n series
Label key: Y means ΔGagg under -6 kcal/mol; N means ΔGagg of -6 kcal/mol or more.

smiles_representation: CCCCCCCCCCCCCCCCCCCCCC[N+](C)(C)Cc1cc(C[N+](C)(C)C)cc(C[N+](C)(C)C)c1.[Br-].[Br-].[Br-]
class: Y
//
smiles_representation: CCCCCCCCCCCCCCCCCC[N+](C)(C)Cc1cc(C[N+](C)(C)C)cc(C[N+](C)(C)C)c1.[Br-].[Br-].[Br-]
class: N
//
smiles_representation: CCCCCCCCCCCCCCCC[N+](C)(C)Cc1cc(C[N+](C)(C)C)cc(C[N+](C)(C)C)c1.[Br-].[Br-].[Br-]
class: N
//
smiles_representation: CCCCCCCCCCCCCC[N+](C)(C)Cc1cc(C[N+](C)(C)C)cc(C[N+](C)(C)C)c1.[Br-].[Br-].[Br-]
class: N

Problem: Item `CCCCCCCCCCCCCCCCCCCC[N+](C)(C)Cc1cc(C[N+](C)(C)C)cc(C[N+](C)(C)C)c1.[Br-].[Br-].[Br-]` : ΔGagg beneath -6 kcal/mol, strictly?
Result: Y

* * *

- assay_summary: Isothermal titration calorimetry: critical aggregation concentration and thermodynamics of aggregation
- Type: physicochemical
- condition_notes: 37° C.; approximated with RT ln(CAC/55.5); double-tailed series
test_readout: ΔGmic
Your answer should be a number followed by the unit of measure.

Problem: Query: ΔGmic; subject: `CCCCCCCCCC[N+](C)(C)Cc1cc(C[N+](C)(C)C)cc(C[N+](C)(C)CCCCCCCCCC)c1.[Br-].[Br-].[Br-]`
Result: -5.26 kcal/mol

Problem: Query: ΔGmic; subject: `CCCCCCCCCCCCCC[N+](C)(C)Cc1cc(C[n+]2ccccc2)cc(C[N+](C)(C)CCCCCCCCCCCCCC)c1.[Br-].[Br-].[Br-]`
Result: -7.17 kcal/mol

Problem: Query: ΔGmic; subject: `CCCCCCCCCCCC[N+](C)(C)Cc1cc(C[n+]2ccccc2)cc(C[N+](C)(C)CCCCCCCCCCCC)c1.[Br-].[Br-].[Br-]`
Result: -6.21 kcal/mol

* * *

- assay_summary: Isothermal titration calorimetry: critical aggregation concentration and thermodynamics of aggregation
- Type: physicochemical
- condition_notes: 37° C.; Gibbs-Helmholtz equation; double-tailed series
- Protocol: Isothermal titration calorimetry (ITC) was used to determine the critical aggregation concentration (CAC) and the thermodynamic parameters at 37° C. associated with aggregate formation for each double-tailed amphiphile for the M-P and M-1 series, as shown in Table 1. A Nano ITC was used to measure the heat change associated with the deaggregation of amphiphiles via power compensation. […] In FIG. 6, inset, CAC is determined by calculating the first derivative the heat curve. […]
Mark n for −TΔSmic values under -2 kcal/mol, and y for everything at or above.

Sample answers from the record:
smiles_representation: CCCCCCCCCCCCCCCC[N+](C)(C)Cc1cc(C[n+]2ccccc2)cc(C[N+](C)(C)CCCCCCCCCCCCCCCC)c1.[Br-].[Br-].[Br-]
class: n
--
smiles_representation: CCCCCCCCCCCCCC[N+](C)(C)Cc1cc(C[N+](C)(C)C)cc(C[N+](C)(C)CCCCCCCCCCCCCC)c1.[Br-].[Br-].[Br-]
class: y
--
smiles_representation: CCCCCCCCCCCCCC[N+](C)(C)Cc1cc(C[n+]2ccccc2)cc(C[N+](C)(C)CCCCCCCCCCCCCC)c1.[Br-].[Br-].[Br-]
class: n
--
smiles_representation: CCCCCCCCCCCCCCCC[N+](C)(C)Cc1cc(C[N+](C)(C)C)cc(C[N+](C)(C)CCCCCCCCCCCCCCCC)c1.[Br-].[Br-].[Br-]
class: n
--
smiles_representation: CCCCCCCCCCCC[N+](C)(C)Cc1cc(C[n+]2ccccc2)cc(C[N+](C)(C)CCCCCCCCCCCC)c1.[Br-].[Br-].[Br-]
class: y

Problem: Is −TΔSmic for `CCCCCCCCCCCC[N+](C)(C)Cc1cc(C[N+](C)(C)C)cc(C[N+](C)(C)CCCCCCCCCCCC)c1.[Br-].[Br-].[Br-]` at or above -2 kcal/mol?
Result: y

Problem: Is −TΔSmic for `CCCCCCCCCC[N+](C)(C)Cc1cc(C[n+]2ccccc2)cc(C[N+](C)(C)CCCCCCCCCC)c1.[Br-].[Br-].[Br-]` at or above -2 kcal/mol?
Result: y

Problem: Is −TΔSmic for `CCCCCCCCCC[N+](C)(C)Cc1cc(C[N+](C)(C)C)cc(C[N+](C)(C)CCCCCCCCCC)c1.[Br-].[Br-].[Br-]` at or above -2 kcal/mol?
Result: y

* * *

ΔGmic by entry:
- assay_summary: Isothermal titration calorimetry: critical aggregation concentration and thermodynamics of aggregation
- Format: physicochemical
- condition_notes: 37° C.; approximated with RT ln(CAC/55.5); double-tailed series
Could you give me the number in kcal/mol? Just the number is fine.

Check out these entries, answers already filled in.
molecule: CCCCCCCCCCCC[N+](C)(C)Cc1cc(C[N+](C)(C)C)cc(C[N+](C)(C)CCCCCCCCCCCC)c1.[Br-].[Br-].[Br-] [Compound 8]
test_readout: ΔGmic
result_units: kcal/mol
measured_value: -6.21
//
molecule: CCCCCCCCCCCCCCCC[N+](C)(C)Cc1cc(C[N+](C)(C)C)cc(C[N+](C)(C)CCCCCCCCCCCCCCCC)c1.[Br-].[Br-].[Br-] [Compound 10]
test_readout: ΔGmic
result_units: kcal/mol
measured_value: -7.89
//
molecule: CCCCCCCCCC[N+](C)(C)Cc1cc(C[n+]2ccccc2)cc(C[N+](C)(C)CCCCCCCCCC)c1.[Br-].[Br-].[Br-] [Compound 2]
test_readout: ΔGmic
result_units: kcal/mol
measured_value: -5.02
//
molecule: CCCCCCCCCCCCCC[N+](C)(C)Cc1cc(C[N+](C)(C)C)cc(C[N+](C)(C)CCCCCCCCCCCCCC)c1.[Br-].[Br-].[Br-] [Compound 9]
test_readout: ΔGmic
result_units: kcal/mol
measured_value: -6.93

Proceed to the following item.
Problem: Query: ΔGmic; subject: CCCCCCCCCCCCCCCC[N+](C)(C)Cc1cc(C[n+]2ccccc2)cc(C[N+](C)(C)CCCCCCCCCCCCCCCC)c1.[Br-].[Br-].[Br-] [Compound 5]
Result: -7.89

* * *

- assay_summary: Isothermal titration calorimetry: critical aggregation concentration and thermodynamics of aggregation
- Format: physicochemical
- condition_notes: ITC, 37° C., pure water; double-tailed M-P and M-1 series
test_readout: CMC (mM)
Could you give me the number in mM? Just the number is fine.

smiles_representation: CCCCCCCCCCCCCCCC[N+](C)(C)Cc1cc(C[n+]2ccccc2)cc(C[N+](C)(C)CCCCCCCCCCCCCCCC)c1.[Br-].[Br-].[Br-]
CMC (mM): 0.18

Problem: Query: CMC; subject: `CCCCCCCCCCCCCC[N+](C)(C)Cc1cc(C[n+]2ccccc2)cc(C[N+](C)(C)CCCCCCCCCCCCCC)c1.[Br-].[Br-].[Br-]`
Result: 0.56

Problem: Query: CMC; subject: `CCCCCCCCCC[N+](C)(C)Cc1cc(C[n+]2ccccc2)cc(C[N+](C)(C)CCCCCCCCCC)c1.[Br-].[Br-].[Br-]`
Result: 14

Problem: Query: CMC; subject: `CCCCCCCCCCCCCC[N+](C)(C)Cc1cc(C[N+](C)(C)C)cc(C[N+](C)(C)CCCCCCCCCCCCCC)c1.[Br-].[Br-].[Br-]`
Result: 0.61

The reported measurements were obtained from patent US10905118B2.
